Recorded pIC50 for the following molecules
Target: IKKε (Homo sapiens, UniProt Q14164)
Construct: His-tag; made in house; host or cells: Sf9 insect cells
Sequence (Q14164 whole entry): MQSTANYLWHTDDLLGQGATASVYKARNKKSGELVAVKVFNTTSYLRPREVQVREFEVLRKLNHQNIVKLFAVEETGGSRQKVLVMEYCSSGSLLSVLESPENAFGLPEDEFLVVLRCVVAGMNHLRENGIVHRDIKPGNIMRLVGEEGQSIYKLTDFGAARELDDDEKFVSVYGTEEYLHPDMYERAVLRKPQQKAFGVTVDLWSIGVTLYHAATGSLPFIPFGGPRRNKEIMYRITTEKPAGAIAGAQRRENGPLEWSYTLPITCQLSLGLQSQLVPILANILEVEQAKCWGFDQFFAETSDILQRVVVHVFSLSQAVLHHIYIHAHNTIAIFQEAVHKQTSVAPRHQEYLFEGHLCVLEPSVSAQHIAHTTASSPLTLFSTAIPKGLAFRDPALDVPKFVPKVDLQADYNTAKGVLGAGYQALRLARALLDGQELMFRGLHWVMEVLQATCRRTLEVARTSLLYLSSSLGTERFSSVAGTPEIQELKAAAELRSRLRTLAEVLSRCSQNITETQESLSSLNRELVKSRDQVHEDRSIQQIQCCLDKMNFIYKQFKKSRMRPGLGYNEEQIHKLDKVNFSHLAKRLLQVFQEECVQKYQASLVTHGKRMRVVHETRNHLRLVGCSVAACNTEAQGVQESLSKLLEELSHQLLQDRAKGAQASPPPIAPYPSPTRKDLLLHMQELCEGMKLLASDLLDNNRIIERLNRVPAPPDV
Experiment: In-vitro IKKε kinase assay ([γ33]ATP filter-plate)
Format: biochemical
Conditions: text bins; read-out: IC50 for inhibition of the kinase activity of IKKε
pIC50: −log10 of the molar value.
measurement_label: pIC50

> print(dat)
                                    molecule                         study.target  measurement.label        result
 1  COc1ccc(-c2ccnc(Nc3ccc(S(=O)(=O)NCCN)c(OC)c3)n2)cc1C#N [compound 366]  IKKε (Homo sapiens, UniProt Q14164)              pIC50  7.30 to 8.30
 2  CC(C)C(=O)NCCOc1ccc(-c2ccnc(Nc3ccc(N4CCOCC4)cc3)n2)cc1C#N [Example 153]  IKKε (Homo sapiens, UniProt Q14164)              pIC50  6.30 to 7.30
 3  COc1cc(NC(=O)NCCCNC(C)=O)cc(Nc2nccc(-c3ccc(OC)c(C#N)c3)n2)c1 [compound 391]  IKKε (Homo sapiens, UniProt Q14164)              pIC50  6.30 to 7.30
 4  COc1cc(Nc2nccc(-c3ccc(OC4CCOCC4)c(C#N)c3)n2)ccc1CO [compound 498]  IKKε (Homo sapiens, UniProt Q14164)              pIC50        > 8.30
 5  COc1cc(Nc2nccc(-c3ccc(OCC4CC4)c(C#N)c3)n2)ccc1C(=O)N1CC(OC)C1 [compound 621]  IKKε (Homo sapiens, UniProt Q14164)              pIC50        > 8.30
 6  COC1CCN(c2cccc(Nc3nccc(-c4ccc(O[C@@H]5CCN(C(=O)CO)C5)c(C#N)c4)n3)c2)C1 (stereo partly shown) [compound 546]  IKKε (Homo sapiens, UniProt Q14164)              pIC50        > 8.30
 7  COc1ccc(Nc2nccc(-c3ccc(C)c(C#N)c3)n2)cc1OC [Example 85]  IKKε (Homo sapiens, UniProt Q14164)              pIC50  7.30 to 8.30
 8  N#Cc1cc(-c2ccnc(Nc3ccc(N4CCOCC4)cc3)n2)ccc1O[C@@H]1CCNC1 [compound 470]  IKKε (Homo sapiens, UniProt Q14164)              pIC50  7.30 to 8.30
 9  COc1ccc(Nc2nccc(-c3cccc(C#N)c3)n2)cc1 [compound 319]  IKKε (Homo sapiens, UniProt Q14164)              pIC50  6.30 to 7.30
10  COc1cc(Nc2nccc(-c3ccc(OC4CCOCC4)c(C#N)c3)n2)ccc1C(=O)N1CC(OC)C1 [compound 484]  IKKε (Homo sapiens, UniProt Q14164)              pIC50        > 8.30
11  N#Cc1cccc(-c2ccnc(Nc3ccc4c(c3)OCCO4)n2)c1 [Example 232]  IKKε (Homo sapiens, UniProt Q14164)              pIC50  6.30 to 7.30
12  COc1ccc(Nc2nccc(-c3ccc(OC(C)(C)C)c(C#N)c3)n2)cc1OC [Example 169]  IKKε (Homo sapiens, UniProt Q14164)              pIC50  7.30 to 8.30
13  N#Cc1cc(-c2ccnc(Nc3cccc(CN4CCOCC4)c3)n2)ccc1OC1CCOCC1 [compound 638]  IKKε (Homo sapiens, UniProt Q14164)              pIC50        > 8.30
14  N#Cc1cc(-c2ccnc(Nc3ccc4c(c3)OCO4)n2)ccc1OC1CCOCC1 [Example 23]  IKKε (Homo sapiens, UniProt Q14164)              pIC50  7.30 to 8.30
15  COc1cc(NC(=O)NC2CCN(C(C)=O)CC2)cc(Nc2nccc(-c3ccc(OC)c(C#N)c3)n2)c1 [compound 344]  IKKε (Homo sapiens, UniProt Q14164)              pIC50  7.30 to 8.30
16  COc1cc(Nc2nccc(-c3ccc(OC4CCOCC4)c(C#N)c3)n2)ccc1CN1CCN(C)CC1 [compound 479]  IKKε (Homo sapiens, UniProt Q14164)              pIC50        > 8.30
